Test system: pressor response to AII
Assay: Assay C: In vivo intragastric pressor assay response for AII antagonists
Parameters: species or system rat
Details: Rattus norvegicus, dose 3 mg/kg, intragastric, or intraduodenal for examples listed
Rule: inhibition at 3 mg/kg of 40% or more gives MET; anything lower gives NOT MET.

                                    compound  class_label
 0  CCCCc1cn(-c2c(OC)cccc2OC)c(=O)n1Cc1ccc(-c2ccccc2-c2nnn[nH]2)cc1 [Compound 273]      NOT MET
 1  CCCCc1nc(CCCC)n(Cc2ccc(-c3ccccc3-c3nnn[nH]3)cn2)n1 [Compound 239]      NOT MET
 2  CCCCc1cn(CCCC)c(=O)n1Cc1ccc(-c2ccccc2-c2nnn[nH]2)cn1 [Compound 223]      NOT MET
 3  CCCCCc1cn(CCCC)c(=O)n1Cc1ccc(-c2ccccc2-c2nnn[nH]2)nc1 [Compound 190]      NOT MET
 4  CCCCc1nc2c(OC(=O)Cc3ccccc3)nnc(O)c2n1Cc1ccc(-c2ccccc2-c2nnn[nH]2)cc1 [Compound 124]          MET
 5  CCCCc1cn(CCC2CCCC2)c(=O)n1Cc1ccc(-c2ccccc2-c2nnn[nH]2)nc1 [Compound 211]      NOT MET
 6  CCCCn1nc(CCc2cccs2)nc1Cc1ccc(-c2ccccc2-c2nnn[nH]2)nc1 [Compound 153]      NOT MET
 7  CCCCc1nc(Cl)c(Cl)n1Cc1ccc(-n2cccc2C(=O)O)cc1 [Compound 147]          MET
 8  CCCCc1cn(-c2ccccc2CC)c(=O)n1Cc1ccc(-c2ccccc2-c2nnn[nH]2)nc1 [Compound 228]          MET
 9  CCCCc1cn(CC2CCCC2)c(=O)n1Cc1ccc(-c2ccccc2-c2nnn[nH]2)nc1 [Compound 208]          MET
10  CCCCn1nc(-c2ccccc2Cl)nc1Cc1ccc(-c2ccccc2-c2nnn[nH]2)nc1 [Compound 158]      NOT MET
11  CCCCc1cn(CCC(C)(C)C)c(=O)n1Cc1ccc(-c2ccccc2-c2nnn[nH]2)nc1 [Compound 203]          MET
12  CCCCc1cn(-c2c(CC)cccc2CC)c(=O)n1Cc1ccc(-c2ccccc2-c2nnn[nH]2)nc1 [Compound 234]      NOT MET
13  CCCCc1cn(CC(C)(C)C)c(=O)n1Cc1ccc(-c2ccccc2-c2nnn[nH]2)nc1 [Compound 202]          MET
14  CCCCc1cn(CCc2cccs2)c(=O)n1Cc1ccc(-c2ccccc2-c2nnn[nH]2)nc1 [Compound 209]      NOT MET
15  CCCCc1nc(-c2ccccc2Cl)n(Cc2ccc(-c3ccccc3-c3nnn[nH]3)nc2)n1 [Compound 268]      NOT MET
16  CCCCn1nc(C2OCCCO2)nc1Cc1ccc(-c2ccccc2-c2nnn[nH]2)nc1 [Compound 180]      NOT MET
17  CCCCc1cn(-c2ccccc2Cl)c(=O)n1Cc1ccc(-c2ccccc2-c2nnn[nH]2)nc1 [Compound 216]          MET
18  CCCCc1cn(CC(CC)CC)c(=O)n1Cc1ccc(-c2ccccc2-c2nnn[nH]2)nc1 [Compound 204]          MET
19  CCCCn1nc(C(OC)OC)nc1Cc1ccc(-c2ccccc2-c2nnn[nH]2)nc1 [Compound 175]      NOT MET
20  CCCCn1cc(CCC2CC2)n(Cc2ccc(-c3ccccc3-c3nnn[nH]3)nc2)c1=O [Compound 193]      NOT MET
21  CCCCc1nc(-c2ccccc2Cl)nn1Cc1ccc(-c2ccccc2-c2nnn[nH]2)nc1 [Compound 267]      NOT MET
22  CCCCc1nc(CC(C)(C)C)n(Cc2ccc(-c3ccccc3-c3nnn[nH]3)nc2)n1 [Compound 250]      NOT MET
23  CCCCc1cn(-c2c(CC)cccc2CC)c(=O)n1Cc1ccc(-c2ccccc2-c2nnn[nH]2)cc1 [Compound 276]      NOT MET
24  CCCCc1cn(-c2c(C)cc(C)cc2C)c(=O)n1Cc1ccc(-c2ccccc2-c2nnn[nH]2)nc1 [Compound 232]          MET
25  CCCCc1cn(CCc2ccccc2)c(=O)n1Cc1ccc(-c2ccccc2-c2nnn[nH]2)cc1 [Compound 133]      NOT MET
26  CCCCc1nc(C(F)(F)CCC)nn1Cc1ccc(-c2ccccc2-c2nnn[nH]2)cc1 [compound 10]          MET
27  CCCCn1nc(C(O)CCC)nc1Cc1ccc(-c2ccccc2-c2nnn[nH]2)nc1 (centres unmarked) [Compound 159]      NOT MET
28  CCCCc1nc(CC(C)(C)C)nn1Cc1ccc(-c2ccccc2-c2nnn[nH]2)nc1 [Compound 249]      NOT MET
